Measured TGI, listed per entry.
- System: HL-60(TB) leukemia
- assay_summary: NCI tumour cell line growth inhibition, 48 h
outcome_measure: TGI (µM)

[[record]]
molecule = "ClCCCN(CCCCl)c1ccc(C=Nc2cccc(Cl)c2)cc1"
quantity_unit = "µM"
qualifier = "="
numeric_value = 58.4

[[record]]
molecule = "COc1cccc2c1C(=O)C=CC2=O"
quantity_unit = "µM"
qualifier = "="
numeric_value = 1.09

[[record]]
molecule = "O=C1[C@@H]2C(c3ccccc3Br)=NO[C@@H]2C(=O)N1c1ccc(Cc2ccc(N3C(=O)[C@H]4C(c5ccccc5Br)=NO[C@H]4C3=O)cc2)cc1"
quantity_unit = "µM"
qualifier = ">"
numeric_value = 100

[[record]]
molecule = "CC1(C)N=C(N)N=C(N)N1c1cccc(CCCCc2cccc(S(=O)(=O)F)c2)c1"
quantity_unit = "µM"
qualifier = "="
numeric_value = 47.8

[[record]]
molecule = "CC(C)(C)OC1=C(OC(C)(C)C)C(O)(c2ccccc2)C1=O (stereo unspecified)"
quantity_unit = "µM"
qualifier = ">"
numeric_value = 100

[[record]]
molecule = "Cc1ccc([N+](=O)[O-])cc1NC(=O)Nc1cccc(F)c1"
quantity_unit = "µM"
qualifier = ">"
numeric_value = 100

[[record]]
molecule = "O=C1OC[C@@H]2[C@@H](O)CCCCCN12"
quantity_unit = "µM"
qualifier = ">"
numeric_value = 100

[[record]]
molecule = "Cc1nc(-c2cccc(Nc3nc(-c4ccc(Cl)cc4)cs3)c2)cs1"
quantity_unit = "µM"
qualifier = ">"
numeric_value = 50

[[record]]
molecule = "N#Cc1c(-c2ccccc2)nc(SCC2CO2)nc1N1CCOCC1 (stereo unspecified)"
quantity_unit = "µM"
qualifier = ">"
numeric_value = 100

[[record]]
molecule = "CCOc1ccc2nc(-c3ccc(O)cc3)sc2c1"
quantity_unit = "µM"
qualifier = "="
numeric_value = 8.81

[[record]]
molecule = "Cc1ccc(S(=O)(=O)OC2CCN(C)CC2)cc1"
quantity_unit = "µM"
qualifier = "="
numeric_value = 37.3

